# experimental-system: Serine/threonine-protein kinase Sgk1 (Homo sapiens) (UniProt O00141)
# Sequence (whole entry): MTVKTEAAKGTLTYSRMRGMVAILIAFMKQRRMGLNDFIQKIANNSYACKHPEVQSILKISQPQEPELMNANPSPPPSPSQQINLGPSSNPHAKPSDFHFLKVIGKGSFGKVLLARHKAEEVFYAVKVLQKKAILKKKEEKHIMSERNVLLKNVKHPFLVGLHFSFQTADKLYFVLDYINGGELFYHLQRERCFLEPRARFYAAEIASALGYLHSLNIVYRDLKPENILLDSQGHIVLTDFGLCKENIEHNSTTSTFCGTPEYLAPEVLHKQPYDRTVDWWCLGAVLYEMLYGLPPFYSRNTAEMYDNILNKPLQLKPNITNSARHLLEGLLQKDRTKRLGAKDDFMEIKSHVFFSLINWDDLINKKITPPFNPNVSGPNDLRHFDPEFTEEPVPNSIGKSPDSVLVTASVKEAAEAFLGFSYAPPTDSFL
# assay-procedure: Inhibition of N-terminal GST-tagged truncated human SGK1 (61 to 431 residues) extracted from Sf21 cells at 1 uM preincubated for 10 mins followed by substrate/ATP addition measured after 50 mins by fluorescence based analysis relative to control
# Format: cell-free
# applied-conditions: time 60.0 min
metric-name: inhibition (%)

Check out these entries, answers already filled in.
Exercise: So what inhibition did O=C(O)c1ccc(-c2c[nH]c3ncc(-c4ccccc4)cc23)cc1C1CCCC1 get with Serine/threonine-protein kinase Sgk1 (Homo sapiens) (UniProt O00141)?
Solution: 77.6

Exercise: So what inhibition did COc1cc(N2CCNCC2)ccc1Nc1cc(C(F)(F)F)c2cc(C(=O)Nc3ccc(NC(C)=O)cc3)c(OC)cc2n1 get with Serine/threonine-protein kinase Sgk1 (Homo sapiens) (UniProt O00141)?
Solution: 62.8

Exercise: So what inhibition did CCCNC(=O)c1cc2c(C(F)(F)F)cc(Nc3ccc(N4CCNCC4)cc3OC)nc2cc1OC get with Serine/threonine-protein kinase Sgk1 (Homo sapiens) (UniProt O00141)?
Solution: 17.3

(a) COc1ccc(NC(=O)c2cc3c(C(F)(F)F)cc(Nc4ccc(N5CCNCC5)c(F)c4)nc3cc2OC)cc1
(b) COc1cc(N2CCNCC2)ccc1Nc1cc(C(F)(F)F)c2cc(C(=O)Nc3ccccn3)c(OC)cc2n1
Exercise: compare a and b ; which one has the greater inhibition? Pick one; state its label.
Solution: a

* * *

# experimental-system: Serine/threonine-protein kinase Sgk1 (Homo sapiens) (UniProt O00141)
# assay-procedure: Inhibition of N-terminal GST-tagged truncated human SGK1 (61 to 431 residues) extracted from Sf21 cells at 10 uM preincubated for 10 mins followed by substrate/ATP addition measured after 50 mins by fluorescence based analysis relative to control
# Type: cell-free
# applied-conditions: time 60.0 min
metric-name: inhibition (%)

Check out these entries, answers already filled in.
Exercise: Look up inhibition: CCCNC(=O)c1cc2c(C(F)(F)F)cc(Nc3ccc(N4CCNCC4)cc3OC)nc2cc1OC
Solution: 66.2

Exercise: Look up inhibition: COc1ccc2nc(Nc3ccc(N4CCNCC4)c(F)c3)cc(C(F)(F)F)c2c1
Solution: 72.4

(1) COc1cc(N2CCNCC2)ccc1Nc1cc(C(F)(F)F)c2cc(C(=O)Nc3ccc(Cl)cc3)c(OC)cc2n1
(2) COC(=O)c1cc2c(C(F)(F)F)cc(Nc3ccc(N4CCNCC4)cc3OC)nc2cc1OC
Exercise: Of 1 and 2 , whose reported inhibition is numerically smaller? Pick one; state its label.
Solution: 2
(2: 61%, 1: 98.5%)

* * *

# experimental-system: Serine/threonine-protein kinase Sgk1 (Homo sapiens) (UniProt O00141)
# assay-procedure: Inhibition of N-terminal GST-tagged truncated human SGK1 (61 to 431 residues) extracted from Sf21 cells at 1 uM preincubated for 10 mins followed by substrate/ATP addition measured after 50 mins by fluorescence based analysis relative to control
# Assay type: cell-free
# applied-conditions: time 60.0 min
metric-name: inhibition (%)

Exercise: Look up inhibition: COC(=O)c1ccc(NC(=O)c2cc3c(C(F)(F)F)cc(Nc4ccc(N5CCNCC5)cc4OC)nc3cc2OC)cc1OC
Solution: 59.2

Exercise: Look up inhibition: COc1ccc2nc(Nc3ccc(N4CCNCC4)cc3OC)cc(C(F)(F)F)c2c1
Solution: 60.2

Exercise: Look up inhibition: COc1cc(N2CCNCC2)ccc1Nc1cc(C(F)(F)F)c2cc(C(=O)Nc3ccc(Cl)c(C(F)(F)F)c3)c(OC)cc2n1
Solution: 18.3

Exercise: Look up inhibition: COc1ccc(NC(=O)c2cc3c(C(F)(F)F)cc(Nc4ccc(N5CCNCC5)cc4OC)nc3cc2OC)cc1
Solution: 76

Exercise: Look up inhibition: CNC(=O)c1cc2c(C(F)(F)F)cc(Nc3ccc(N4CCNCC4)cc3OC)nc2cc1OC
Solution: 15.1

(A) COc1cccc(NC(=O)c2cc3c(C(F)(F)F)cc(Nc4ccc(N5CCNCC5)cc4OC)nc3cc2OC)c1
(B) COc1cc(N2CCNCC2)ccc1Nc1cc(C(F)(F)F)c2cc(C(=O)NCCO)c(OC)cc2n1
(C) COc1ccc2nc(Nc3ccc(N4CCNCC4)cc3)cc(C(F)(F)F)c2c1
Exercise: Sort these molecules on inhibition so the largest reading comes first. List the labels in the requested order.
Solution: A, C, B

* * *

# experimental-system: Serine/threonine-protein kinase Sgk1 (Homo sapiens)
# assay-procedure: Inhibition of N-terminal GST-tagged truncated human SGK1 (61 to 431 residues) extracted from Sf21 cells at 10 uM preincubated for 10 mins followed by substrate/ATP addition measured after 50 mins by fluorescence based analysis relative to control
# Assay type: cell-free
# applied-conditions: time 60.0 min
metric-name: inhibition (%)

Exercise: Look up inhibition: COc1cc(N2CCNCC2)ccc1Nc1cc(C(F)(F)F)c2cc(C(=O)Nc3ccc(OC(F)F)cc3)c(OC)cc2n1
Solution: 97

Exercise: Look up inhibition: COc1cc(N2CCNCC2)ccc1Nc1cc(C(F)(F)F)c2cc(C(=O)Nc3ccc(NC(C)=O)cc3)c(OC)cc2n1
Solution: 98.9

Exercise: Look up inhibition: COc1ccc2nc(Nc3ccc(N4CCNCC4)cc3)cc(C(F)(F)F)c2c1
Solution: 85.7

Exercise: Look up inhibition: O=C(O)c1ccc(-c2c[nH]c3ncc(-c4ccccc4)cc23)cc1C1CCCC1
Solution: 96.3

Exercise: Look up inhibition: COc1ccc2nc(Nc3ccc(N4CCNCC4)c(C(F)(F)F)c3)cc(C(F)(F)F)c2c1
Solution: 80.3

* * *

# experimental-system: Serine/threonine-protein kinase Sgk1 (Homo sapiens) (UniProt O00141)
# assay-procedure: Inhibition of N-terminal GST-tagged truncated human SGK1 (61 to 431 residues) extracted from Sf21 cells at 1 uM preincubated for 10 mins followed by substrate/ATP addition measured after 50 mins by fluorescence based analysis relative to control
# Format: cell-free
# applied-conditions: time 60.0 min
metric-name: inhibition (%)

Check out these entries, answers already filled in.
Exercise: Look up inhibition: COc1cc(NC(=O)c2cc3c(C(F)(F)F)cc(Nc4ccc(N5CCNCC5)cc4OC)nc3cc2OC)cc(OC)c1
Solution: 65.1

Exercise: Look up inhibition: COc1cc(N2CCNCC2)ccc1Nc1cc(C(F)(F)F)c2cc(C(=O)Nc3ccc(C(F)(F)F)cc3)c(OC)cc2n1
Solution: 58.2

Exercise: Look up inhibition: COC(=O)c1cc2c(C(F)(F)F)cc(Nc3ccc(N4CCNCC4)cc3OC)nc2cc1OC
Solution: 12.2

(I) COc1cc(N2CCNCC2)ccc1Nc1cc(C(F)(F)F)c2cc(C(=O)Nc3ccc4c(c3)OCO4)c(OC)cc2n1
(II) COC(=O)c1cc2c(C(F)(F)F)cc(Nc3ccc(N4CCNCC4)c(F)c3)nc2cc1OC
Exercise: compare I and II ; which one has the greater inhibition? Pick one; state its label.
Solution: I

* * *

# experimental-system: Serine/threonine-protein kinase Sgk1 (Homo sapiens)
# Sequence (whole entry): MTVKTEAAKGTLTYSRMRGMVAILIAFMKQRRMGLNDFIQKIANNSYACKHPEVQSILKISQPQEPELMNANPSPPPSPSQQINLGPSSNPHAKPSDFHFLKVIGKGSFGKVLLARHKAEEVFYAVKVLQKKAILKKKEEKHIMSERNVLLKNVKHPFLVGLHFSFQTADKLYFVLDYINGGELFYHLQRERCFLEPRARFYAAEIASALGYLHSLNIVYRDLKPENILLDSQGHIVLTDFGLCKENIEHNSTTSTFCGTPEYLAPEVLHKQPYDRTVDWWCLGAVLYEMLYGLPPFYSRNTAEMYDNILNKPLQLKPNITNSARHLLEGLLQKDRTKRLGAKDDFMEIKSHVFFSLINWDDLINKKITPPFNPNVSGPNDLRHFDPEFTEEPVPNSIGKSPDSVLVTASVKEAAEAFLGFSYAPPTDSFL
# assay-procedure: Inhibition of N-terminal GST-tagged truncated human SGK1 (61 to 431 residues) extracted from Sf21 cells at 1 uM preincubated for 10 mins followed by substrate/ATP addition measured after 50 mins by fluorescence based analysis relative to control
# Assay type: cell-free
# applied-conditions: time 60.0 min
metric-name: inhibition (%)

Exercise: Look up inhibition: COc1cc(N2CCNCC2)ccc1Nc1cc(C(F)(F)F)c2cc(C(=O)Nc3ccc(OC(F)(F)F)cc3)c(OC)cc2n1
Solution: 61

Exercise: Look up inhibition: COc1ccc(NC(=O)c2cc3c(C(F)(F)F)cc(Nc4ccc(N5CCNCC5)cc4)nc3cc2OC)cc1
Solution: 64

Exercise: Look up inhibition: COc1cc(N2CCNCC2)ccc1Nc1cc(C(F)(F)F)c2cc(C(=O)Nc3ccc(OC(F)F)cc3)c(OC)cc2n1
Solution: 60.8

Exercise: Look up inhibition: COc1cc(N2CCNCC2)ccc1Nc1cc(C(F)(F)F)c2cc(C(=O)Nc3ccc(F)c(Cl)c3)c(OC)cc2n1
Solution: 68.5
